Where do these numbers come from? They come from patent US5686486A.

biological target: HIV-1 protease (Human immunodeficiency virus type 1 group M subtype B, UniProt P04585); test: biochemical; settings: read-out: HIV-1 Protease % Inhib, dose 1.000 uM
Each entry gets Not met if its inhibition at 1 µM stays under 20%, and Met if its inhibition at 1 µM is 20% or above.

| COMPOUND | EXPERIMENTAL SYSTEM | ASSIGNED CATEGORY |
| --- | --- | --- |
| CCC(CCc1ccccc1)c1c(O)c2ccccc2oc1=O (centres unmarked) | HIV-1 protease (Human immunodeficiency virus type 1 group M subtype B, UniProt P04585) | Not met |
| CCC(c1cccc(NC(=O)CNC(=O)OC(C)(C)C)c1)c1c(O)c2ccccc2oc1=O (centres unmarked) | HIV-1 protease (Human immunodeficiency virus type 1 group M subtype B, UniProt P04585) | Met |
| O=c1oc2ccccc2c(O)c1C(c1ccccc1)C1CC1 (centres unmarked) | HIV-1 protease (Human immunodeficiency virus type 1 group M subtype B, UniProt P04585) | Met |
| CCC(c1cccc(NS(=O)(=O)CC)c1)c1c(O)c2ccccc2oc1=O (centres unmarked) | HIV-1 protease (Human immunodeficiency virus type 1 group M subtype B, UniProt P04585) | Not met |
| CCC(c1cccc(NC(=O)CCCNC(=O)OC(C)(C)C)c1)c1c(O)c2ccccc2oc1=O (centres unmarked) | HIV-1 protease (Human immunodeficiency virus type 1 group M subtype B, UniProt P04585) | Met |
| CC(c1cccc(C#N)c1)c1c(O)c2ccccc2oc1=O (centres unmarked) | HIV-1 protease (Human immunodeficiency virus type 1 group M subtype B, UniProt P04585) | Not met |
| COc1ccc2c(O)c(C(c3ccccc3)C3CC3)c(=O)oc2c1 (centres unmarked) | HIV-1 protease (Human immunodeficiency virus type 1 group M subtype B, UniProt P04585) | Not met |
| CCC(c1ccccc1)c1c(O)c2c(oc1=O)CCCC2 (centres unmarked) | HIV-1 protease (Human immunodeficiency virus type 1 group M subtype B, UniProt P04585) | Not met |

----------
biological target: HIV-1 protease (Human immunodeficiency virus type 1 group M subtype B); experiment: biochemical; settings: dose 30.000 uM; read-out: HIV-1 Protease % Inhib
METRIC: inhibition at 30 µM

| MOLECULE | OBSERVED |
| --- | --- |
| O=c1oc2c(c(O)c1C(c1cccc(NS(=O)(=O)CCCN3CCOCC3)c1)C1CC1)CCCCCC2 (stereo not shown) [Example 365B (Second Title Compound)] | 89.1% |
| C=CS(=O)(=O)Nc1cccc(C(c2c(O)c3c(oc2=O)CCCCC3)C2CC2)c1 (stereo not shown) | 107% |
| O=C(Nc1ccc(C(c2c(O)c3c(oc2=O)CCCCCC3)C2CC2)cc1)OCc1ccccc1 (stereo not shown) | 118% |
| CCCCCCCCCCCCS(=O)(=O)Nc1cccc(C(c2c(O)c3c(oc2=O)CCCCCC3)C2CC2)c1 (stereo not shown) | 81.8% |
| Nc1ccc(C(c2c(O)c3c(oc2=O)CCCCCC3)C2CC2)cc1 (stereo not shown) | 110% |
| CCCC(c1cccc(NC(=O)OCc2ccccc2)c1)c1c(O)c2c(oc1=O)CCCCCC2 (stereo not shown) | 86% |
| COCCOCCC1CCCCCc2c1oc(=O)c(C(c1ccccc1)C1CC1)c2O (stereo not shown) | 110% |
| O=c1oc2c(c(O)c1C(c1ccc(NS(=O)(=O)c3ccc(F)cc3)cc1)C1CC1)CCCCCC2 (stereo not shown) | 57.2% |
| O=c1oc2c(c(O)c1C(c1cc(NS(=O)(=O)c3cccc4cccnc34)cc(NS(=O)(=O)c3cccc4cccnc34)c1)C1CC1)CCCCCC2 (stereo not shown) | 54.2% |
| O=c1oc2c(c(O)c1C(c1cccc(NC(=S)Cc3ccccc3)c1)C1CC1)CCCCCC2 (stereo not shown) | 86.8% |
| N#Cc1ccc(S(=O)(=O)Nc2ccc(C(c3c(O)c4c(oc3=O)CCCCCC4)C3CC3)cc2)cc1 (stereo not shown) | 110% |
| O=c1oc2c(c(O)c1C(c1cccc(N3CCCS3(=O)=O)c1)C1CC1)CCCCCC2 (stereo not shown) [Example 365B (First Title Compound)] | 78.8% |
| O=c1oc2c(c(O)c1C(c1cccc(NC(=S)Nc3ccccc3)c1)C1CC1)CCCCCC2 (stereo not shown) | 107% |
| O=c1oc2c(c(O)c1C(c1ccc(CO)o1)C1CC1)CCCCCC2 (stereo not shown) | 94.6% |
| O=c1oc2c(c(O)c1C(c1ccccc1)C1CC1)CCCCC2CCC1OCCO1 (stereo not shown) | 101% |
| CS(=O)(=O)N(Cc1ccccc1)c1cccc(C(c2c(O)c3c(oc2=O)CCCCCC3)C2CC2)c1 (stereo not shown) | 78.6% |

----------
molecular target: HIV-1 protease (Human immunodeficiency virus type 1 group M subtype B); test: biochemical; conditions: dose 1.100 uM; read-out: HIV-1 Protease % Inhib
Counter-ions that a name gives are not always drawn.

| MOLECULE | inhibition at 1.1 µM, % |
| --- | --- |
| O=C(Nc1cccc(C(c2c(O)c3c(oc2=O)CCCCCC3)C2CC2)c1)c1ccc(Cl)cc1 (stereo not shown) [Example 206] | 48 |
| O=c1oc2c(c(O)c1C(c1cccc(NS(=O)(=O)CCCN3CCOCC3)c1)C1CC1)CCCCCC2 (stereo not shown) [Example 365B (Second Title Compound)] | 94 |
| CC(=O)Nc1nc(C)c(S(=O)(=O)Nc2cccc(C(c3c(O)c4c(oc3=O)CCCCCC4)C3CC3)c2)s1 (stereo not shown) [Example 322] | 22.3 |
| CCC(c1cccc(NC(=O)CCN)c1)c1c(O)c2c(oc1=O)CCCCCC2 (stereo not shown) [Example 220, monohydrochloride] | 25.2 |

----------
# inhibition at 10 µM values compiled below
target: HIV-1 protease (Human immunodeficiency virus type 1 group M subtype B); experiment: biochemical; details: read-out: HIV-1 Protease % Inhib, dose 10.000 uM

| COMPOUND | UOM | inhibition at 10 µM |
| --- | --- | --- |
| CCC(c1cccc(C(=O)NC2c3ccccc3CC2O)c1)c1c(O)c2ccccc2oc1=O (stereo not shown) | % | 77.1 |
| Nc1cccc(C(c2c(O)c3c(oc2=O)CCCCCC3)C2CC2)c1 (stereo not shown) | % | 99.7 |
| O=c1oc2c(c(O)c1C(c1ccccc1)C1CC1)CCCCCC2CC1CC1 (stereo not shown) | % | 108 |
| O=c1oc2c(c(O)c1C(c1cccc(NS(=O)(=O)c3ccc(N=Nc4ccccc4)cc3)c1)C1CC1)CCCCCC2 (stereo not shown) | % | 96.9 |

----------
# inhibition at 10 µM values compiled below
biological target: HIV-1 protease (Human immunodeficiency virus type 1 group M subtype B); test: biochemical; settings: read-out: HIV-1 Protease % Inhib, dose 10.000 uM
METRIC: inhibition at 10 µM (%)

| COMPOUND | EXPERIMENTAL SYSTEM | LIMIT OPERATOR | OBSERVED |
| --- | --- | --- | --- |
| CCOC(=O)Nc1cccc(C(c2c(O)c3c(oc2=O)CCCCCC3)C2CC2)c1 (centres unmarked) | HIV-1 protease (Human immunodeficiency virus type 1 group M subtype B) | = | 101 |
| CCC(c1ccc(F)cc1)c1c(O)c2ccccc2oc1=O (centres unmarked) | HIV-1 protease (Human immunodeficiency virus type 1 group M subtype B) | = | 16.9 |
| O=c1oc2ccccc2c(O)c1C(CC1CCCCC1)c1ccccc1 (centres unmarked) | HIV-1 protease (Human immunodeficiency virus type 1 group M subtype B) | = | 27.6 |
| CCC(c1cccc(NC(=O)CN)c1)c1c(O)c2ccccc2oc1=O (centres unmarked) | HIV-1 protease (Human immunodeficiency virus type 1 group M subtype B) | = | 96.3 |
| CCC(c1cccc(NC(=O)CC(C)(C)NC(=O)OC(C)(C)C)c1)c1c(O)c2ccccc2oc1=O (centres unmarked) | HIV-1 protease (Human immunodeficiency virus type 1 group M subtype B) | < | 10 |
| CCC(c1cccc(NC(=O)CNC(=O)OC(C)(C)C)c1)c1c(O)c2ccccc2oc1=O (centres unmarked) | HIV-1 protease (Human immunodeficiency virus type 1 group M subtype B) | = | 103 |
| CCCCC1CCCCCc2c1oc(=O)c(C(c1ccccc1)C1CC1)c2O (centres unmarked) | HIV-1 protease (Human immunodeficiency virus type 1 group M subtype B) | = | 117 |
| CCC(c1cccs1)c1c(O)c2c(oc1=O)CCCCCC2 (centres unmarked) | HIV-1 protease (Human immunodeficiency virus type 1 group M subtype B) | = | 103 |
| CCC(c1ccc(OC)cc1)c1c(O)c2ccccc2oc1=O (centres unmarked) | HIV-1 protease (Human immunodeficiency virus type 1 group M subtype B) | = | 44.7 |
| O=c1oc2c(c(O)c1C(c1cccc(NS(=O)(=O)c3cc(Cl)sc3Cl)c1)C1CC1)CCCCCC2 (centres unmarked) | HIV-1 protease (Human immunodeficiency virus type 1 group M subtype B) | = | 104 |
| CCC(CCCc1ccccc1)c1c(O)c2ccccc2oc1=O (centres unmarked) | HIV-1 protease (Human immunodeficiency virus type 1 group M subtype B) | = | 33.6 |
| CCC(c1cccc(NS(=O)(=O)c2ccc(Cl)cc2)c1)c1c(O)c2c(oc1=O)CCCCCC2 (centres unmarked) | HIV-1 protease (Human immunodeficiency virus type 1 group M subtype B) | = | 119 |
| O=c1oc2c(c(O)c1C(c1cccc(NS(=O)(=O)c3cccc4nonc34)c1)C1CC1)CCCCCC2 (centres unmarked) | HIV-1 protease (Human immunodeficiency virus type 1 group M subtype B) | = | 126 |
| CCCOc1ccc2c(O)c(C(CC)c3ccccc3)c(=O)oc2c1 (centres unmarked) | HIV-1 protease (Human immunodeficiency virus type 1 group M subtype B) | = | 76.8 |
| Cc1cncc(S(=O)(=O)Nc2cccc(C(c3c(O)c4c(oc3=O)CCCCCC4)C3CC3)c2)c1 (centres unmarked) | HIV-1 protease (Human immunodeficiency virus type 1 group M subtype B) | = | 86.7 |
| O=c1oc2c(c(O)c1C(c1cccc(NS(=O)(=O)c3cc(C(F)(F)F)cc(C(F)(F)F)c3)c1)C1CC1)CCCCCC2 (centres unmarked) | HIV-1 protease (Human immunodeficiency virus type 1 group M subtype B) | = | 109 |
| O=c1oc2ccccc2c(O)c1CCCc1ccccc1 [Example 2, 4-Hydroxy-3-(3-phenylpropyl)coumarin] | HIV-1 protease (Human immunodeficiency virus type 1 group M subtype B) | = | 15.6 |
